# tested.on: Cytochrome P450 2D6 (Homo sapiens, UniProt P10635)
# Sequence (P10635 whole entry): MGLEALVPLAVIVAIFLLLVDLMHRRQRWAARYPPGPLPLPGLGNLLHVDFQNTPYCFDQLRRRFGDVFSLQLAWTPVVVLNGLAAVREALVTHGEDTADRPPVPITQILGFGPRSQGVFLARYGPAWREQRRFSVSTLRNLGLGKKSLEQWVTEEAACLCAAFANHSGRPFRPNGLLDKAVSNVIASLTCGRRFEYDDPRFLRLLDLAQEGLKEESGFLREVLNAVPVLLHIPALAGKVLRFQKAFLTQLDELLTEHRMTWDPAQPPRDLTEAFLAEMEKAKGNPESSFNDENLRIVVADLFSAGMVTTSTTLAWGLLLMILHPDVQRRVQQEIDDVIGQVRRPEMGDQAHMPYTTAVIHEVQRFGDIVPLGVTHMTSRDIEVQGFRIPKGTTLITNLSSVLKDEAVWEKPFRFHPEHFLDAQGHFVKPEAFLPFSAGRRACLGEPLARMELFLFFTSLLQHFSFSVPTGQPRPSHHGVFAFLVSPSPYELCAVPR
# test.method.notes: Inhibition of CYP2D6
# Type: ADME
measured.parameter: INH

Example entries begin here.
compound | INH
CCCS(=O)(=O)c1ccc2[nH]c(C3CN(c4ccccc4)CCO3)nc2c1 (centres undefined) | > 20 µM
CCCS(=O)(=O)c1ccc2[nH]c(C3CCOC(c4ccccc4)C3)nc2c1 (mixture of isomers) | > 20 µM
CCCS(=O)(=O)c1ccc2nc(N3CCOC(c4ccccc4)C3)[nH]c2c1 (centres undefined) | > 20 µM
CC(C)S(=O)(=O)c1ccc2nc(N3CCOC(c4ccccc4)C3)[nH]c2c1 (centres undefined) | > 20 µM
CCS(=O)(=O)c1ccc2[nH]c(N3CCOC(c4ccc(C)cc4)C3)nc2c1 (centres undefined) | > 20 µM

Looking up CCCS(=O)(=O)c1ccc2nc(C3CCC(=O)N(c4ccccc4)C3)[nH]c2c1 (centres undefined) , I see its INH listed as > 20 µM

Given item CCS(=O)(=O)c1ccc2[nH]c(N3CCOC(c4ccc(OC)cc4)C3)nc2c1 (centres undefined) , the value recorded as its INH is > 20 µM

Given item CCCS(=O)(=O)c1ccc2nc(N3CCCC(c4ccccc4)C3)[nH]c2c1 (centres undefined) , the value recorded as its INH is 13 µM

Looking up CC(C)(C(F)(F)F)S(=O)(=O)c1ccc2nc(N3CCOC(c4ccccc4)C3)[nH]c2c1 (centres undefined) , I see its INH listed as 18 µM
